pIC50: −log10 of the molar value.
Before we begin, note that these pIC50 values for Plasmepsin II (Plasmodium falciparum, UniProt P46925) originate from several publications.
Measure: pIC50

CCCCCc1ccc(C(=O)N(CCN(CCCC)CCCC)Cc2ccc(N3CCCCC3)cc2)cc1; 6.43
CCCCNC(=O)C[C@H](O)[C@H](CC(C)C)NC(=O)[C@@H](NC(=O)c1ccc(Oc2ccc(C(=O)N[C@@H](CC(C)C)C(=O)O)cc2)cc1)C(C)CC (some centres not stated); 6.91
CCCCCc1ccc(C(=O)N(CCN(CCCC)CCCC)Cc2ccc(-c3ccc(C(=O)N(C)C)cc3)cc2)cc1; 7.11
CCCCCc1ccc(C(=O)N(CCN(CCCC)CCCC)Cc2ccc(-c3ccc4c(c3)OCO4)nc2)cc1; 6.36
CCCCCc1ccc(C(=O)N(CCN(CCCC)CCCC)Cc2ccc(-c3ccc(CC(=O)NCc4ccccc4)cc3)cc2)cc1; 7.34
Nc1nc2cc(-c3ccc(C4CCCCC4)cc3)ccc2c(=O)n1C[C@@H]1CC[C@H](c2ccccc2)O1 (racemic); 5.62
CCCCCc1ccc(-c2ccc3c(=O)n(C[C@@H]4CC[C@H](c5ccccc5)O4)c(N)nc3c2)cc1 (racemic); 6.82
CCCN(CCC)C(=O)c1cc(C(=O)N[C@@H](Cc2ccccc2)[C@H](O)CNCc2cccc(OC)c2)cc(N2CCCCC2)c1; 6.22
CCCCCc1ccc(C(=O)N(CCN(CCCC)CCCC)Cc2ccc(-c3cccnc3)cc2)cc1; 6.43
Nc1nc2cc(-c3ccc(CCC4CC4)cc3)ccc2c(=O)n1C[C@@H]1CC[C@H](c2ccccc2)O1 (racemic); 6.40
CCCCc1ccc(-c2ccc3c(=O)n(C[C@@H]4CC[C@H](c5ccccc5)O4)c(N)nc3c2)cc1 (racemic); 6.64
Nc1nc2cc(-c3ccccc3)ccc2c(=O)n1C[C@@H]1CCCO1 (racemic); 5.64
CCCCCc1ccc(C(=O)N(CCN(CCCC)CCCC)Cc2ccc(-c3ccc(C(=O)NCc4ccccc4)cc3)cc2)cc1; 7.14
Nc1nc2cc(-c3ccc(CCCc4ccccc4)cc3)ccc2c(=O)n1CC1CCC(c2ccccc2)O1 (configuration not stated); 5.49
COC(=O)CCc1ccc(-c2ccc3c(=O)n(C[C@@H]4CC[C@H](c5ccccc5)O4)c(N)nc3c2)cc1 (racemic); 5.59
CCCCCc1ccc(C(=O)N(CCN(CCCC)CCCC)Cc2ccc(N(CC)CC)cc2)cc1; 5.83
